Please go through the items and note down their IC50 at 48 h.
# EXPERIMENT: WST-1 cytotoxicity assay
# Type: cell-based, human
# TEST CONDITIONS: human, WI-38 human lung fibroblast cells, WI-38 cells, WST-1
Numbers only, in µg/mL.

Here are 3 molecules together with their reported answers.
{"columns": ["MOLECULE", "IC50 at 48 h [µg/mL]"],
 "data": [
  ["COC(=O)[C@H]1[C@H]2C[C@@H]3c4[nH]c5cc(OC)ccc5c4CCN3C[C@H]2C[C@@H](OC(=O)c2cc(OC)c(OC)c(OC)c2)[C@@H]1OC", 44.8],
  ["COC(=O)c1cc(O)c(O)c(O)c1 [Methyl gallate, methyl gallate]", 344],
  ["C[C@@H]1O[C@@H](OC[C@H]2O[C@@H](Oc3c(-c4ccc(O)c(O)c4)oc4cc(O)cc(O)c4c3=O)[C@H](O)[C@@H](O)[C@@H]2O)[C@H](O)[C@H](O)[C@H]1O", 1230]
]}

With those in mind, consider the next molecule.
IN: Consider the molecule O=C1c2ccccc2C(=O)c2c(O)c(O)cc(O)c21 . State its measured IC50 at 48 h.
OUT: 1470
